pIC50: −log10 of the molar value.
Compiled record: pIC50 values for PIK3CA (human) (UniProt P42336) across several sources.
property: pIC50

- compound: "COc1ccc(-c2ccnc3c2c(/C=C2\\Oc4cccc(O)c4C2=O)cn3C)cc1S(=O)(=O)N1CCOCC1"
  target_under_test: "PIK3CA (human) (UniProt P42336)"
  property: "pIC50"
  data_value: 7.55

I = CNC(=O)C(C)Cn1cnc2ccc(-c3cnc(OC)c(NS(=O)(=O)c4cc(Cl)ccc4C)c3)cc2c1=O (single isomer, unassigned)
II = O=C(NCc1ccc(F)cc1)N[C@H]1CC[C@H](Nc2nc(N3CCOCC3)nc(-n3c(C(F)F)nc4ccccc43)n2)CC1
Could you point out whether the larger pIC50 belongs to I or to II ? Answer = label. I
(I: 8.74, II: 6.74)

---

Record set: IC50 | PIK3CA (human) | literature, multiple sources.

Look over these answered cases.
- compound: "COc1ncc(-c2cc(OC3CCOCC3)c3nc(N)nc(C)c3c2)cc1NS(C)(=O)=O"
  data_value: "2.7 nM"
- compound: "O=C(c1cnc2ccc(-c3cnc(Cl)c(NS(=O)(=O)c4cccc(F)c4)c3)cn12)N1CCOCC1"
  data_value: "< 100 nM"
- compound: "O=c1cc(Oc2cccc(NC3CCN(Cc4ccncc4)CC3)c2)c2ccccc2[nH]1"
  data_value: "> 10000 nM"
- compound: "O=C1CCN(C(=O)N2CCOc3ccc(-c4ccc(-c5ncc[nH]5)cc4)cc3C2)[C@@H](c2ccc(F)cc2)C1"
  data_value: "≤ 75 nM"
- compound: "CN(CCO)C(=O)c1ccc(NC(=O)Nc2ccc(Nc3nc(Nc4ccc(C(N)=O)cc4)c4cnn(C)c4n3)cc2)cc1"
  data_value: "0.4 nM"
- compound: "Cn1cc(/C=C2\\Oc3cc(O)cc(F)c3C2=O)c2c(-c3ccccc3)ccnc21"
  data_value: "98 nM"

Dear colleague, I am looking for the recorded IC50 of the following compound: `Cc1c([C@H](C)NC(=O)c2c(N)nn3cccnc23)n(-c2ccccc2)c(=O)c2c(F)cccc12` 1000 to 10000 nM

IC50 lookup needed for `CCOC(=O)CN(Cc1ccccc1)C(=O)N1CCOc2ccc(-c3ccc4nc(C)[nH]c4c3)cc2C1` , thanks. 1000 to 3000 nM

# input compound: `C=Cc1nn(Cc2cc3cccc(C)c3c(=O)n2-c2ccccc2F)c2ncnc(N)c12` ; wanted: its IC50 > 10000 nM

Give its IC50 value. Item: `CCn1cc(/C=C2\Oc3ccc(NC(=O)Nc4cccnc4)cc3C2=O)c2c(-c3ccc(C(=O)N4CCN(CCO)CC4)cc3)ccnc21` 2690 nM

Suppose we examine the compound `CCS(=O)(=O)Nc1cc(-c2cc3c4c(cnc3cc2F)N(C)C(=O)C42CCC2)cnc1OCCNC(C)C` ; what IC50 value has been reported? 21 nM

State the recorded IC50 for this entry: Nc1nc2cc(-c3ccc4ncc(C(=O)N5CCC(O)C5)n4c3)ccc2o1 (stereo not shown) < 100 nM

---

pIC50: −log10 of the molar value.
This section presents pIC50 values reported for UniProt P42336 in the literature.
property: pIC50

A = CN1CCN(c2ccc(-c3ccc4ncc5ccc(=O)n(-c6cccc(C(F)(F)F)c6)c5c4n3)cn2)CC1
B = CNC(=O)C(C)Cn1cnc2ccc(-c3cnc(C)c(NS(=O)(=O)c4sc(C)nc4C)c3)cc2c1=O (single isomer, unassigned)
C = Nc1ccc(Oc2cc(=O)[nH]c3ccccc23)cc1
D = COc1ncc(-c2cc(OC3CCC(F)(F)CC3)c3ncnc(C)c3c2)cc1NS(=O)(=O)c1ccc(F)cc1F
From the items above, give an ordering by pIC50 that starts at the lowest reported number. Order the labels as requested and give them as your answer. C, A, D, B
(C: 5.65, A: 6.80, D: 8.77, B: 9.15)
